Target: Chst15 (Homo sapiens)
Sequence (Q7LFX5 1-561): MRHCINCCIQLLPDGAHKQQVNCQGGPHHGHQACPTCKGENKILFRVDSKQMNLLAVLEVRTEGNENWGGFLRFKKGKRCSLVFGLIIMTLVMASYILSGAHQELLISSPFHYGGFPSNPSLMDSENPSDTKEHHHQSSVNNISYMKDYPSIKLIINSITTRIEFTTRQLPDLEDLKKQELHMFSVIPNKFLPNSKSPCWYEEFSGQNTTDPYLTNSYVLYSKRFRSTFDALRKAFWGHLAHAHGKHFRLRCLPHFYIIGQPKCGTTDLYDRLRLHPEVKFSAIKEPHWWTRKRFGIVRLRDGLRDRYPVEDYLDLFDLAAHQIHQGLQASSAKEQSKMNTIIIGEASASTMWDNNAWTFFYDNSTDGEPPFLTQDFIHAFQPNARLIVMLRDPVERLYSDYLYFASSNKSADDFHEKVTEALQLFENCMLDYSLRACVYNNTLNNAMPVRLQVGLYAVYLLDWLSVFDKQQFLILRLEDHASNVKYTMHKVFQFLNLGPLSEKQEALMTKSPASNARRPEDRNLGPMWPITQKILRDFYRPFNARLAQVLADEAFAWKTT
pIC50: −log10 of the molar value.
ASSAY ENDPOINT: pIC50

Task item: Need pIC50, item "COc1cc(/C=C(\C#N)C(=O)Nc2ccc(Cl)cc2Cl)cc(Br)c1O"
Reply: 5.60 to 5.70

Hello, the source for this data is paper PMC5896753, in case you need it.
